System: U251 CNS
Assay: NCI tumour cell line growth inhibition, 48 h
Items are presented alongside their recorded TGI.

stdin: Report TGI for CC1(C)C2C=CC1C(=O)CC2 (centres undefined) please.
stdout: > 100 µM

stdin: Quick one: TGI of `CN(C)CCCNC(=O)c1cc(NC(=O)c2cc(NC(=O)CCNS(=O)(=O)c3ccc4c(c3)C(=O)c3ccccc3C4=O)cn2C)cn1C` ?
stdout: > 100 µM

stdin: Dear colleague, I am looking for the recorded TGI of the following molecule: CC(=O)OCC1OC(n2c(-c3ccc(C)cc3)cc(-c3ccccc3)c(C#N)c2=O)C(OC(C)=O)C(OC(C)=O)C1OC(C)=O (centres undefined)
stdout: > 100 µM

stdin: I'd like to know its TGI. The molecule in question is `N#CC1(C#N)C(C#N)(C#N)C12CCCCCC2`
stdout: 20.5 µM

Next:
stdin: What TGI value was documented for this molecule, COC(=O)c1ccccc1C1CN=NC12Cc1cc(C)ccc1C2=O (centres undefined) ?
stdout: > 100 µM

stdin: Would you mind telling me what TGI value was observed for Cc1cc(=O)oc2c(CNC(Cc3ccccc3)C(=O)O)c(O)ccc12 (centres undefined) ?
stdout: > 100 µM

stdin: Given the molecule `O=C(Nc1ccc([N+](=O)[O-])cc1Cl)c1cccc([N+](=O)[O-])c1O` , what is its reported TGI?
stdout: > 100 µM

stdin: Request the reported TGI associated with COc1cc2c(cc1OC)C13CCN4CC5CCOC6CC(=O)N2C1C6C5CC43 (centres undefined)
stdout: > 100 µM

stdin: Need TGI of `C[C@@H]1CC[C@@H]2[C@@H](C1)O[C@@H]([C@H](C)OCc1ccccc1)SC2(C)C` , thanks.
stdout: 33.5 µM

stdin: Would you mind telling me what TGI value was observed for CC(=O)C1CC[C@@H]2[C@H](CC[C@]3(C)[C@@H](O)CC[C@@H]23)[C@H]1C(=O)O (some centres undefined) ?
stdout: > 100 µM

stdin: What value of measured TGI is listed for `Cc1ccc(S(=O)(=O)N2CCCSCC2)cc1` ?
stdout: > 100 µM

stdin: # get_value(readout='TGI', item= OC(c1cc(C23CC4CC(CC(C4)C2)C3)nc2c(Cl)cc(Cl)cc12)C1CCCCN1 (centres undefined) )
stdout: 3 µM

stdin: What does the data say about its TGI? Entry: `CO/N=C(\C)CCC#Cc1ccccc1C(=O)OC`
stdout: > 10 µM
